PROCEDURE DETAILS: Cytotoxicity against human NCI-H322 cells expressing p53 mutant after 24 hrs by SRB assay
Format: functional, cell-based
REPORTED CONDITIONS: NCI-H322, 24 h
ENDPOINT LABEL: pIC50
Units for pIC50: none; it is -log10 of a concentration expressed in mol/L.

Query: # pIC50 lookup, item COc1ccc(-c2cc3n(n2)CC(=O)N(CCc2ccccc2)C3=O)cc1
Response: 4.55
